Give measured viability, T/C for each item. Keep answers brief.
# Test system: 616215-338-R-J1-PDC complex spheroid viability
# assay.text: Anticancer human tumor 616215-338-R-J1-PDC patient-derived colon adenocarcinoma cell line growth inhibition [POLQ]
# condition.details: second compound 3.16 µM; first compound 0.00316 µM; stronger effect = lower value
Give just the numeric value; % need not be written.

The recorded viability, T/C for entry CC[C@@]1(O)C(=O)OCc2c1cc1n(c2=O)Cc2cc3c(CN(C)C)c(O)ccc3nc2-1 + Cc1cccc(N(C)C(=O)C2C(O)CCN2c2nc(C)cc(C(F)(F)F)c2C#N)c1 equals 93.2

Lab note: measured viability, T/C of Cn1ncnc1[C@H]1c2n[nH]c(=O)c3cc(F)cc(c23)N[C@@H]1c1ccc(F)cc1 + COC1C(OC(N)=O)C(O)C(Oc2ccc3c(O)c(NC(=O)c4ccc(O)c(CC=C(C)C)c4)c(=O)oc3c2C)OC1(C)C was 102

viability, T/C measured on Cn1ncnc1[C@H]1c2n[nH]c(=O)c3cc(F)cc(c23)N[C@@H]1c1ccc(F)cc1 + Cc1cccc(N(C)C(=O)C2C(O)CCN2c2nc(C)cc(C(F)(F)F)c2C#N)c1 = 101

CCc1c2c(nc3ccc(O)cc13)-c1cc3c(c(=O)n1C2)COC(=O)[C@]3(O)CC + Cc1cccc(N(C)C(=O)C2C(O)CCN2c2nc(C)cc(C(F)(F)F)c2C#N)c1 has a reported viability, T/C of 116

viability, T/C measured on COc1cccc(OCCCN)c1-c1cc(Nc2cnc(C#N)cn2)n[nH]1 + Cc1cccc(N(C)C(=O)C2C(O)CCN2c2nc(C)cc(C(F)(F)F)c2C#N)c1 = 86.8

----------
Could you please report measured pIC50 for the items listed next?
# Test system: 616215-338-R-J1-PDC complex spheroid viability
# assay.text: Anticancer human tumor 616215-338-R-J1-PDC cell line growth inhibition [POLQ];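 note: spheroids exposed to compounds for one week before readout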
# condition.details: compound alone; run of 12/05/2023
pIC50: −log10 of the molar value.

The recorded pIC50 with 616215-338-R-J1-PDC complex spheroid viability for Cc1cccc(N(C)C(=O)C2C(O)CCN2c2nc(C)cc(C(F)(F)F)c2C#N)c1 (configuration not stated) was < 5.00

616215-338-R-J1-PDC complex spheroid viability pIC50 of `Nc1ccc(C#CCN(C(=O)Cc2ncc(C(F)(F)F)cc2C(F)(F)F)c2ccc(F)cc2)nn1` is < 5.00

----------
# System: 616215-338-R-J1-PDC complex spheroid viability
# assay.text: Anticancer human tumor 616215-338-R-J1-PDC cell line growth inhibition [POLQ];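 note: spheroids exposed to compounds for one week before readout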;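 for viability, T/C: percent viability relative to DMSO vehicle wells taken as 100%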
# condition.details: second compound 0.316 µM; first compound 3.16 µM; stronger effect = lower value
Please go through the items and note down their viability, T/C.
Give the value in % but do not write % after it.

For reference, reported viability, T/C for CC(C)n1c(=O)n(C)c2cnc3cc(F)c(-c4ccc(OCCCN5CCCCC5)nc4)cc3c21 + Nc1ccc(C#CCN(C(=O)Cc2ncc(C(F)(F)F)cc2C(F)(F)F)c2ccc(F)cc2)nn1 stands at 97.7

Entry COc1cc2cc(C(=O)CCC(=O)O)sc2cc1OC + Cc1cccc(N(C)C(=O)C2C(O)CCN2c2nc(C)cc(C(F)(F)F)c2C#N)c1 — recorded viability, T/C = 103

Documented viability, T/C of CC(C)n1c(=O)n(C)c2cnc3cc(F)c(-c4ccc(OCCCN5CCCCC5)nc4)cc3c21 + Cc1cccc(N(C)C(=O)C2C(O)CCN2c2nc(C)cc(C(F)(F)F)c2C#N)c1 : 117
